- system: OX1 (Homo sapiens, UniProt O43613)
- assay: Orexin receptor cell-based functional assay (FLIPR [Ca2+]i), OX1
- condition-parameters: CHO-OX1 cells, FLIPR calcium, EC90 of OXA
pIC50: −log10 of the molar value.
experimental-readout: pIC50

Solved entries:
O=C(c1cccc(F)c1-n1nccn1)N1CCC(F)(F)[C@H]1CNc1ncc(C(F)(F)F)cn1    8.40
Cc1cccc(C(=O)N2CCC(F)(F)[C@H]2CNc2ncc(C(F)(F)F)cn2)c1-n1nccn1    8.15
N#Cc1ccc(-n2nccn2)c(C(=O)N2CCC(F)(F)[C@H]2CNc2ncc(C(F)(F)F)cn2)c1    7.85

1. N#Cc1ccc(-n2nccn2)c(C(=O)N2CCC(F)(F)[C@H]2CNc2ncc(Cl)cn2)c1
2. O=C(c1ncccc1-n1nccn1)N1CCC(F)(F)[C@H]1CNc1ncc(Cl)cn1
3. Cc1nc(C(=O)N2CCC(F)(F)[C@H]2CNc2ncc(C(F)(F)F)cn2)c(-c2ccc(F)cc2)s1
4. Cc1cccc(C(=O)N2CCC(F)(F)[C@H]2CNc2ncc(Cl)cn2)c1-n1nccn1
5. Cc1ccc(-n2nccn2)c(C(=O)N2CCC(F)(F)[C@H]2COc2ccc(C(F)(F)F)cn2)c1
Task: Put the entries in order of pIC50, starting with the largest number. In plain terms: list the labels in the order you were asked to.
Output: 3, 4, 1, 2, 5

###

- system: OX1 (Homo sapiens, UniProt O43613)
- Sequence (O43613 1-425): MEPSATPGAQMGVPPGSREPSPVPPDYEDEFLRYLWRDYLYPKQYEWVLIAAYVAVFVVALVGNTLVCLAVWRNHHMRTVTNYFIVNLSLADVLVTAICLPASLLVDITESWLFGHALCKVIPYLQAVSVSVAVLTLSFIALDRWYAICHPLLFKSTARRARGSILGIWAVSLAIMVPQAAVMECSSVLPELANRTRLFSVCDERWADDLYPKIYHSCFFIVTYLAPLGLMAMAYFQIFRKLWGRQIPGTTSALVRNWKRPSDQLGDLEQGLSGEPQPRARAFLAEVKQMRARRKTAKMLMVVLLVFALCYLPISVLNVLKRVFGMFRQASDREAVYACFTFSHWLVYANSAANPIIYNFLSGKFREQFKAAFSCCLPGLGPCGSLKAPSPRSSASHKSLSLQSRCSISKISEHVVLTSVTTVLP
- assay: Orexin receptor cell-based functional assay (FLIPR [Ca2+]i), OX1
- condition-parameters: CHO-OX1 cells, FLIPR calcium, EC90 of OXA
experimental-readout: IC50 (nM)

I. O=C(c1c(-n2nccn2)ccc(F)c1F)N1CCC(F)(F)[C@H]1CNc1ncc(C(F)(F)F)cn1
II. O=C(c1cc(F)c(F)cc1-n1nccn1)N1CCC(F)(F)[C@H]1CNc1ncc(C(F)(F)F)cn1
III. O=C(c1cc(F)ccc1-n1nccn1)N1CCC(F)(F)[C@H]1CNc1cnc(C(F)(F)F)cn1
IV. Cc1cccc(-n2nccn2)c1C(=O)N1CCC(F)(F)[C@H]1CNc1ncc(C(F)(F)F)cn1
Task: Please arrange the 4 molecules above from largest to smallest IC50 value. In plain terms: list the labels in the order you were asked to.
Output: II, IV, I, III
(II: 24 nM, IV: 14 nM, I: 6 nM, III: 3 nM)
